# systemTested: EGFR wildtype (Homo sapiens)
# Sequence (P00533 25-1210): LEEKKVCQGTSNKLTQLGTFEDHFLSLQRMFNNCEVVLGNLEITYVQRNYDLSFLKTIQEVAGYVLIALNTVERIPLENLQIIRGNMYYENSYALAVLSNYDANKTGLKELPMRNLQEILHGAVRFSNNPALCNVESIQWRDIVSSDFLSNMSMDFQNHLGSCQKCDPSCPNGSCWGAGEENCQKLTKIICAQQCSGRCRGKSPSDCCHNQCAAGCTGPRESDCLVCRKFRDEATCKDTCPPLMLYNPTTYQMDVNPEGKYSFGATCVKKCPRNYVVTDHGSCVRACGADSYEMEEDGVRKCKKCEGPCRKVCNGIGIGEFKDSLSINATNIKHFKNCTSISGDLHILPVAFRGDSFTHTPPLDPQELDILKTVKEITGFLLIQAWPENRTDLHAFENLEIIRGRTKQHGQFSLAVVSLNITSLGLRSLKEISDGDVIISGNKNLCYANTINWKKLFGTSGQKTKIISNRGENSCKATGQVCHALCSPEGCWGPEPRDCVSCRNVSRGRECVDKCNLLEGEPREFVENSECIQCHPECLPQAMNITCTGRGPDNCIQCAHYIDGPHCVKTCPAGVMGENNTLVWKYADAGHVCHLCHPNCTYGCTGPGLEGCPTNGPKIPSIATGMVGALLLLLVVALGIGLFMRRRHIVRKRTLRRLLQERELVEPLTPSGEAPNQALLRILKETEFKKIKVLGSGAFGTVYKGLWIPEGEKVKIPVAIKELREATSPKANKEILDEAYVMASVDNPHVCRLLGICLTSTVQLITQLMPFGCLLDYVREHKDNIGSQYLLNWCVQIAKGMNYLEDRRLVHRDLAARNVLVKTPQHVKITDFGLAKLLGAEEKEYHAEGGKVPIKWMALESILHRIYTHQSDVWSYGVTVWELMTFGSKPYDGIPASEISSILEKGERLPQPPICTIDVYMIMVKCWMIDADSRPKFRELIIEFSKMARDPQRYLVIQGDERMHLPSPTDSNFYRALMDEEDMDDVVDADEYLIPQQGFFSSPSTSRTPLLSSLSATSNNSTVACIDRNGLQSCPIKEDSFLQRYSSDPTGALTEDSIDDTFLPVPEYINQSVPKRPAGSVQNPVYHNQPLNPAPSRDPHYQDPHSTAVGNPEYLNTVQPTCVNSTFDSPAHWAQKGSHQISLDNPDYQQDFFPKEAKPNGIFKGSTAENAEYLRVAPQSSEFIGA
# assay: Biochemical EGFR kinase assay (Lance Ultra TR-FRET), wildtype
# testConditions: ATP at Km; read-out: IC50 WT, Km ATP
# Procedure: Biochemical EGFR kinase assays were conducted using Lance Ultra time-resolved fluorescence resonance energy transfer (TR-FRET) technology from Perkin-Elmer. […] Each kinase reactions were incubated at room temperature for 1 hour and then stopped by the addition of 4 μL of stop solution (10 mM EDTA). […] After 60 minutes incubation at room temperature the LANCE signal was measured on an EnVision Multilabel Reader (Perkin-Elmer). […]
pIC50: −log10 of the molar value.
recordedMetric: pIC50

compound	valueMeasured
C[C@]1(O)CC[C@@H](Nc2nccc(-c3cnc(Nc4ccnc(-c5cnn(S(=O)(=O)C6CC6)c5)n4)cc3N[C@H]3CC[C@@](C)(O)CC3)n2)CC1 [Example 191]	7.56

P = COC(c1ccc(-c2cnc(Nc3ccnc(-c4cnn(S(=O)(=O)C5CC5)c4)n3)cc2NC2CCC(CO)CC2)nc1)C(F)(F)F (stereo not drawn) [Example 261]
Q = O=S(=O)(C1CC1)n1cc(-c2nccc(Nc3cc(N[C@H]4CC[C@@H](CO)CC4)c(-c4ccc(OC(F)(F)F)cn4)cn3)n2)cn1 [Example 195]
Prompt: Quick one: lower pIC50, P or Q ? Give the label under which the chosen entry appears.
Completion: Q
